Ref: patent US20240293559A1

Biological target: SHP2 (Homo sapiens, UniProt Q06124)
Construct: endogenous in cells; host or cells: MV 411
Sequence (Q06124 1-593): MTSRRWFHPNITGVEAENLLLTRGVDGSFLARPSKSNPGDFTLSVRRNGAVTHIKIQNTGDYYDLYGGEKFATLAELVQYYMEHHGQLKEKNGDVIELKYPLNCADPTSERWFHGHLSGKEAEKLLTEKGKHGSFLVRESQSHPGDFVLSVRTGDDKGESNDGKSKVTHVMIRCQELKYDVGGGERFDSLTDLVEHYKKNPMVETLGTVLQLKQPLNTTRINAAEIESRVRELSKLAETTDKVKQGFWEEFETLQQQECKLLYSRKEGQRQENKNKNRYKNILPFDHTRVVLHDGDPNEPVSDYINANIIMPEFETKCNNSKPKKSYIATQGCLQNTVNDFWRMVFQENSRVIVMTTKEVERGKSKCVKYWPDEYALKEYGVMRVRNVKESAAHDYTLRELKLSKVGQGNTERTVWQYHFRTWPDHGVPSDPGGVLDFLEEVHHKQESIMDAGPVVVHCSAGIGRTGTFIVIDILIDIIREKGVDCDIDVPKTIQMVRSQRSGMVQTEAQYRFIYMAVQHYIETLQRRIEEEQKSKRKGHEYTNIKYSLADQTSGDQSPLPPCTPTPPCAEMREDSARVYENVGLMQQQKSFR
Assay: SHP2 degradation in MV 411 cells by Western blot (median degradation concentration)
Format: cell-based
Conditions: 24 hours with compound, SHP-2 antibody Western blot, concentration of the median degradation from exposure gray scale
ENDPOINT: DC50 (nM)

CCOc1cc2oc(-c3ccc(OCCOCCOCCOCCOc4ccc5c(c4)C(=O)N(C4CCC(=O)NC4=O)C5=O)cc3Cl)cc(=O)c2cc1-c1cncc(C(C)=O)c1 (centres unmarked) ... 45

1: CCOc1cc2oc(-c3ccc(OCCOCCOCCOCCOc4cccc5c4C(=O)N(C4CCC(=O)NC4=O)C5=O)cc3Cl)cc(=O)c2cc1-c1cc(C(N)=O)cc(-c2ccncc2)c1 (centres unmarked)
2: CCOc1cc2oc(-c3ccc(OCCOCCOCCOCCOc4cccc5c4C(=O)N(C4CCC(=O)NC4=O)C5=O)cc3Cl)cc(=O)c2cc1-c1cccc(C(=O)OC)c1F (centres unmarked)
I'd appreciate it if you could identify which of 1 and 2 has the greater DC50. Indicate your choice by writing its label.
1
